Adenosine receptor A2a (Homo sapiens, UniProt P29274): reported AC50 for various compounds. Note: assay procedure not described here.
Sequence (P29274 whole entry): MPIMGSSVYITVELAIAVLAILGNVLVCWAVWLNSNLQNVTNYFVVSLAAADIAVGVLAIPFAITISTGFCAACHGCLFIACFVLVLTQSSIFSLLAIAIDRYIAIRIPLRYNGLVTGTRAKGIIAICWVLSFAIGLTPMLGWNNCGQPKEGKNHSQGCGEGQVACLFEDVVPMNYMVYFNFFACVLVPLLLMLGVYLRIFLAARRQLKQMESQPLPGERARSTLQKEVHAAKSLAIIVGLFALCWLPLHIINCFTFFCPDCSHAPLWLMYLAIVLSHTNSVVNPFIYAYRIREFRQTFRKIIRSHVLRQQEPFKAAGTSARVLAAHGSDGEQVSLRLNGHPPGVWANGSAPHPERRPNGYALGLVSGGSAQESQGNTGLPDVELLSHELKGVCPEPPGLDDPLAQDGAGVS

Use the examples below as a reference point.
O=C(C[S+]([O-])Cc1ccco1)NC/C=C\COc1cc(CN2CCCCC2)ccn1 (configuration not stated)	> 10 µM
CO/N=C(\C(=O)N[C@@H]1C(=O)N2C(C(=O)O)=C(CSc3nc(C)c(CC(=O)O)s3)CS[C@H]12)c1csc(N)n1	> 30 µM
COC(=O)[C@H]1[C@H]2C[C@@H]3c4[nH]c5ccccc5c4CCN3C[C@H]2C[C@@H](OC(=O)c2cc(OC)c(OC)c(OC)c2)[C@@H]1OC	> 30 µM
CC(=O)SCC(Cc1ccccc1)C(=O)NCC(=O)OCc1ccccc1 (configuration not stated)	> 30 µM

Input line: Give the measured AC50 of `C[C@]12CCC(=O)C=C1[C@@H]1C[C@@H]1[C@H]1[C@@H]3[C@@H]4C[C@@H]4[C@@]4(CCC(=O)O4)[C@@]3(C)CC[C@@H]12` .
Output line: > 30 µM

Input line: Give the measured AC50 of `Nc1nnc(-c2cccc(Cl)c2Cl)c(N)n1` .
Output line: > 30 µM

Input line: Give the measured AC50 of `CN(C)CCN(Cc1ccccc1)c1ccccn1` .
Output line: > 10 µM

----------
Equilibrative nucleoside transporter 1 (Homo sapiens, UniProt Q99808): reported AC50 for various molecules. Note: assay procedure not described here.
Sequence (Q99808 whole entry): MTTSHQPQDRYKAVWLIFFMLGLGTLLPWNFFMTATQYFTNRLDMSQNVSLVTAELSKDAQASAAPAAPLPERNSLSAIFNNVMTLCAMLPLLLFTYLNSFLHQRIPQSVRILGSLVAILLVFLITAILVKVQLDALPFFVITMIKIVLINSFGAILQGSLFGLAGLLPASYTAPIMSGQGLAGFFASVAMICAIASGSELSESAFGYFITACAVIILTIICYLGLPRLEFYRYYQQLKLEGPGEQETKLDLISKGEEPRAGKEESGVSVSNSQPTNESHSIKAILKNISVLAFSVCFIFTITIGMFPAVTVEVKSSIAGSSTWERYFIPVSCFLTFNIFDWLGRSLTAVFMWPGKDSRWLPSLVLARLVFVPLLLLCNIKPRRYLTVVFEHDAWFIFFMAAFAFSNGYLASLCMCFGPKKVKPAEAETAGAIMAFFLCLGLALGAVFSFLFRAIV

COc1cc2c(cc1OC)C1CC(=O)C(CC(C)C)CN1CC2 (stereo not drawn)	> 30 µM

Input line: Quick check: AC50 on Equilibrative nucleoside transporter 1 (Homo sapiens, UniProt Q99808), item `CC(C)(N)Cc1ccccc1` ?
Output line: > 30 µM

Input line: Quick check: AC50 on Equilibrative nucleoside transporter 1 (Homo sapiens, UniProt Q99808), item `O=C(O)CCCC[C@@H]1SC[C@@H]2NC(=O)N[C@@H]21` ?
Output line: > 10 µM

Input line: Quick check: AC50 on Equilibrative nucleoside transporter 1 (Homo sapiens, UniProt Q99808), item CS(=O)(=O)Nc1ccc([N+](=O)[O-])cc1Oc1ccccc1 [NIMESULIDE] ?
Output line: 15 µM

Input line: Quick check: AC50 on Equilibrative nucleoside transporter 1 (Homo sapiens, UniProt Q99808), item `Oc1cc(O)c2c(c1)O[C@H](c1ccc(O)c(O)c1)[C@@H](O)C2` ?
Output line: > 30 µM

Input line: Quick check: AC50 on Equilibrative nucleoside transporter 1 (Homo sapiens, UniProt Q99808), item OCCOCCN1CCN(C(c2ccccc2)c2ccc(Cl)cc2)CC1 (stereo not drawn) [HYDROXYZINE] ?
Output line: > 30 µM

Input line: Quick check: AC50 on Equilibrative nucleoside transporter 1 (Homo sapiens, UniProt Q99808), item Cc1ccc(S(=O)(=O)NC(=O)N[C@H]2[C@H]3CC[C@@](C)([C@H]2O)C3(C)C)cc1 [GLIBORNURIDE] ?
Output line: > 30 µM

Input line: Quick check: AC50 on Equilibrative nucleoside transporter 1 (Homo sapiens, UniProt Q99808), item `C[C@]12CCC(=O)C=C1[C@@H]1C[C@@H]1[C@H]1[C@@H]3[C@@H]4C[C@@H]4[C@@]4(CCC(=O)O4)[C@@]3(C)CC[C@@H]12` ?
Output line: > 30 µM

Input line: Quick check: AC50 on Equilibrative nucleoside transporter 1 (Homo sapiens, UniProt Q99808), item `COc1cccc2c1C(=O)c1c(O)c3c(c(O)c1C2=O)C[C@@](O)(C(=O)CO)C[C@@H]3O[C@H]1C[C@H](N)[C@H](O)[C@H](C)O1` ?
Output line: > 30 µM

Input line: Quick check: AC50 on Equilibrative nucleoside transporter 1 (Homo sapiens, UniProt Q99808), item `CO/N=C(\C(=O)N[C@@H]1C(=O)N2C(C(=O)[O-])=C(C[n+]3ccc(N)n3CCO)CS[C@H]12)c1csc(N)n1` ?
Output line: > 30 µM

Input line: Quick check: AC50 on Equilibrative nucleoside transporter 1 (Homo sapiens, UniProt Q99808), item `OCC(CO)N[C@H]1C[C@](O)(CO)[C@@H](O)[C@H](O)[C@H]1O` ?
Output line: > 30 µM

Input line: Quick check: AC50 on Equilibrative nucleoside transporter 1 (Homo sapiens, UniProt Q99808), item CCc1ccc(C(=O)C(C)CN2CCCCC2)cc1 (stereo not drawn) ?
Output line: > 30 µM

Input line: Quick check: AC50 on Equilibrative nucleoside transporter 1 (Homo sapiens, UniProt Q99808), item `C[C@]12C=CC(=O)C=C1CC[C@@H]1[C@@H]2[C@@H](O)C[C@@]2(C)[C@H]1CC[C@]2(O)C(=O)CO` ?
Output line: > 30 µM

Input line: Quick check: AC50 on Equilibrative nucleoside transporter 1 (Homo sapiens, UniProt Q99808), item `CN(C)[C@@H]1C(O)=C(C(=O)NCN2CCCC2)C(=O)[C@@]2(O)C(O)=C3C(=O)c4c(O)cccc4[C@@](C)(O)[C@H]3C[C@@H]12` ?
Output line: > 10 µM

Input line: Quick check: AC50 on Equilibrative nucleoside transporter 1 (Homo sapiens, UniProt Q99808), item `C[C@]12CCC(=O)C=C1C=C[C@@H]1[C@@H]2CC[C@@]2(C)[C@H]1CC[C@@]21CCC(=O)O1` ?
Output line: > 30 µM

Input line: Quick check: AC50 on Equilibrative nucleoside transporter 1 (Homo sapiens, UniProt Q99808), item `CCOC(=O)[C@H](CCc1ccccc1)N[C@@H](C)C(=O)N1Cc2ccccc2C[C@H]1C(=O)O` ?
Output line: > 30 µM

Input line: Quick check: AC50 on Equilibrative nucleoside transporter 1 (Homo sapiens, UniProt Q99808), item `C[C@]12CCC(=O)C=C1CC[C@H]1[C@@H]3CC[C@](O)(C(=O)CO)[C@@]3(C)C[C@H](O)[C@@]12F` ?
Output line: > 30 µM

Input line: Quick check: AC50 on Equilibrative nucleoside transporter 1 (Homo sapiens, UniProt Q99808), item `O=C1[C@@H]2[C@H]3CC[C@H](C3)[C@@H]2C(=O)N1C[C@@H]1CCCC[C@H]1CN1CCN(c2nsc3ccccc23)CC1` ?
Output line: > 30 µM

Input line: Quick check: AC50 on Equilibrative nucleoside transporter 1 (Homo sapiens, UniProt Q99808), item `CCCCCCCC(=O)CC[C@@H]1[C@@H](C/C=C\CCCC(=O)O)[C@@H](O)C[C@H]1O` ?
Output line: > 30 µM
